- Experimental target: human SSAO (Homo sapiens (Human))
- Sequence (Q16853 whole entry): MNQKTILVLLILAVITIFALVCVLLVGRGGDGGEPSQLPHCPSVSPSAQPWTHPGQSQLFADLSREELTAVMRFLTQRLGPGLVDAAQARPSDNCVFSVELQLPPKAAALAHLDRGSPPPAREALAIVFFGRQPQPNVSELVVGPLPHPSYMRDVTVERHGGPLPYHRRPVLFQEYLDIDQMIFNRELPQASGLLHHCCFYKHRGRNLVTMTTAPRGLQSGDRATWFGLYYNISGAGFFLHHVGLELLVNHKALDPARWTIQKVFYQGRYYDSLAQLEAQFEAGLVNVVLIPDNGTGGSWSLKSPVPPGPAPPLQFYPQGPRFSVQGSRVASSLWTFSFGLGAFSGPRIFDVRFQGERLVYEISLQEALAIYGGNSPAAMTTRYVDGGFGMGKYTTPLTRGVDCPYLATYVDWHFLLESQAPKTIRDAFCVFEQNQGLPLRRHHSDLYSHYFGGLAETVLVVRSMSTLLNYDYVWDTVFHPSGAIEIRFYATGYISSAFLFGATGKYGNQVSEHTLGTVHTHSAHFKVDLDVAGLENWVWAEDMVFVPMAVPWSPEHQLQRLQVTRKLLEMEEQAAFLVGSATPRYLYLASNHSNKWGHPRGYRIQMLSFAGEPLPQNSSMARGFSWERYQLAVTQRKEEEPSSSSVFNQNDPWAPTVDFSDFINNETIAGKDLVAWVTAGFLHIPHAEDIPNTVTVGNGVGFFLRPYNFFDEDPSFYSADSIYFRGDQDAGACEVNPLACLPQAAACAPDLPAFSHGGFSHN
- Test name: SSAO enzyme inhibition assay (benzylamine substrate; hydrogen peroxide/HRP or aldehyde detection)
- Test settings: purified recombinantly expressed human SSAO, RT
Endpoint name: IC50

* NC(=O)N1CCC(c2c(-n3cccn3)n(-c3ccc(Cl)cc3)c3cnccc23)CC1 [Example 13, formic acid] | 0.01 to 0.1 µM
* CN(C)Cc1c(-c2ccncc2)n(-c2ccc(Cl)cc2)c2cnccc12 [Example 19] | 0.01 to 0.1 µM
* CN(C)Cc1c(-c2cccnc2)n(-c2ccc(Cl)cc2)c2cnccc12 [Example 20] | 0.1 to 0.35 µM
* NC(=O)N1CCC(c2c(-c3ccc(N)nc3)n(-c3ccc(Cl)cc3)c3cnccc23)CC1 [Example 1] | < 0.01 µM
* NC(=O)N1CCC(c2c(-c3cn[nH]c3)n(-c3ccc(Cl)cc3)c3cnccc23)CC1 [Example 9] | < 0.01 µM
* Clc1ccc(-n2c(-c3ccncc3)c(C3CCNCC3)c3ccncc32)cc1 [Example 17] | < 0.01 µM
* CN1CCN(c2cc(-c3c(C4CCN(C(N)=O)CC4)c4ccncc4n3-c3ccc(Cl)cc3)ccn2)CC1 [Example 5, bis(formic acid)] | < 0.01 µM
* NC(=O)N1CCC(c2c(-c3cccnc3)n(-c3ccc(Cl)cc3)c3cnccc23)CC1 [Example 2, formic acid] | 0.01 to 0.1 µM
* NC(=O)N1CCC(c2c(-n3ccnn3)n(-c3ccc(Cl)cc3)c3cnccc23)CC1 [Example 15] | 0.1 to 0.35 µM
* NC(=O)N1CCC(c2c(-n3ccnc3)n(-c3ccc(Cl)cc3)c3cnccc23)CC1 [Example 14, bis(formic acid)] | 0.01 to 0.1 µM
* Clc1ccc(-n2c(-c3nn[nH]n3)c(C3CCNCC3)c3ccncc32)cc1 [Example 21, bis(trifluoroacetic acid)] | 0.1 to 0.35 µM
* Cn1cc(-c2c(C3CCN(C(N)=O)CC3)c3ccncc3n2-c2ccc(Cl)cc2)cn1 [Example 10, trifluoroacetic acid] | < 0.01 µM
* COc1ccc(-c2c(C3CCN(C(N)=O)CC3)c3ccncc3n2-c2ccc(Cl)cc2)cn1 [Example 3, formic acid] | < 0.01 µM

###

- Experimental target: hERG K+ channel (Homo sapiens (Human))
- Test name: hERG assay, IonWorks patch clamp electrophysiology
- Assay type: cell-based
- Test settings: Chinese Hamster Lung cell line stably expressing hERG, IonWorks Quattro, max 11 uM
- Procedure: Compounds of the invention were tested for inhibition of the human ether a go-go related gene (hERG) K^+ channel using IonWorks patch clamp electrophysiology. […] Single cell ion currents were measured in the perforated patch clamp configuration (100 ug/mL amphoterocin) at room temperature using an IonWorks Quattro instrument. […] Currents were measured from the tail step at the 5th pulse, and referenced to the holding current. […]
Endpoint name: IC50

• Clc1ccc(-n2c(-c3nn[nH]n3)c(C3CCNCC3)c3ccncc32)cc1 = > 10 µM
• Nc1ccc(-c2c(C3CCNCC3)c3ccncc3n2-c2ccc(Cl)cc2)cn1 = > 10 µM
• NC(=O)N1CCC(c2c(-c3cn[nH]c3)n(-c3ccc(Cl)cc3)c3cnccc23)CC1 = > 10 µM
• COc1cc(-c2c(C3CCN(C(N)=O)CC3)c3ccncc3n2-c2ccc(Cl)cc2)ccn1 = 0.1 to 1 µM
• Cn1cncc1-c1c(C2CCN(C(N)=O)CC2)c2ccncc2n1-c1ccc(Cl)cc1 = > 10 µM
• NC(=O)N1CCC(c2c(-n3ccnc3)n(-c3ccc(Cl)cc3)c3cnccc23)CC1 = > 10 µM

###

Measured IC50 by item
- Experimental target: UniProtKB Q16853
- Test name: SSAO enzyme inhibition assay (benzylamine substrate; hydrogen peroxide/HRP or aldehyde detection)
- Test settings: purified recombinantly expressed human SSAO, RT
- Experimental: All primary assays were performed at RT. with purified recombinantly expressed human SSAO. Enzyme was prepared essentially as described in Öhman et al. (Protein Expression and Purification 46 (2006) 321-331). […] SSAO activity was assayed using […] benzylamine and analysed by measuring radioactive benzaldehyde. […] Phase separation occurred instantly and activity was read in a Topcount scintillation counter (Perkin-Elmer). […] Data was analysed as above.
Endpoint name: IC50

• Cn1cncc1-c1c(C2CCN(C(N)=O)CC2)c2ccncc2n1-c1ccc(Cl)cc1 = < 10 nM
• Nc1ccc(-c2c(C3CCNCC3)c3ccncc3n2-c2ccc(Cl)cc2)cn1 = 10 to 100 nM
• COc1cc(-c2c(C3CCN(C(N)=O)CC3)c3ccncc3n2-c2ccc(Cl)cc2)ccn1 = < 10 nM
• NC(=O)N1CCC(c2c(-c3ccc(N4CCOCC4)nc3)n(-c3ccc(Cl)cc3)c3cnccc23)CC1 = < 10 nM
• Cn1nccc1-c1c(C2CCN(C(N)=O)CC2)c2ccncc2n1-c1ccc(Cl)cc1 = < 10 nM
• NC(=O)N1CCC(c2c(-n3cncn3)n(-c3ccc(Cl)cc3)c3cnccc23)CC1 = 100 to 350 nM
• NC(=O)N1CCC(c2c(-c3cc[nH]n3)n(-c3ccc(Cl)cc3)c3cnccc23)CC1 = 10 to 100 nM
• NC(=O)N1CCC(c2c(-c3cncnc3)n(-c3ccc(Cl)cc3)c3cnccc23)CC1 = 10 to 100 nM

###

- Experimental target: hERG K+ channel (Homo sapiens (Human))
- Test name: hERG assay, IonWorks patch clamp electrophysiology
- Type: cell-based
- Test settings: human, pH 7.3; Chinese Hamster Lung cell line stably expressing hERG, IonWorks Quattro, max 11 uM
Measured IC50 by item
Endpoint name: IC50

* CN(C)Cc1c(-c2ccncc2)n(-c2ccc(Cl)cc2)c2cnccc12 [Example 19] | 1 to 10 µM
* NC(=O)N1CCC(c2c(-c3cncnc3)n(-c3ccc(Cl)cc3)c3cnccc23)CC1 [Example 7] | 1 to 10 µM
* NC(=O)N1CCC(c2c(-c3cccnc3)n(-c3ccc(Cl)cc3)c3cnccc23)CC1 [Example 2, formic acid] | 1 to 10 µM
* NC(=O)N1CCC(c2c(-c3cc[nH]n3)n(-c3ccc(Cl)cc3)c3cnccc23)CC1 [Example 8] | 1 to 10 µM

###

Measured IC50 by item
- Experimental target: hERG K+ channel (Homo sapiens (Human), UniProt Q12809)
- Sequence (Q12809 whole entry): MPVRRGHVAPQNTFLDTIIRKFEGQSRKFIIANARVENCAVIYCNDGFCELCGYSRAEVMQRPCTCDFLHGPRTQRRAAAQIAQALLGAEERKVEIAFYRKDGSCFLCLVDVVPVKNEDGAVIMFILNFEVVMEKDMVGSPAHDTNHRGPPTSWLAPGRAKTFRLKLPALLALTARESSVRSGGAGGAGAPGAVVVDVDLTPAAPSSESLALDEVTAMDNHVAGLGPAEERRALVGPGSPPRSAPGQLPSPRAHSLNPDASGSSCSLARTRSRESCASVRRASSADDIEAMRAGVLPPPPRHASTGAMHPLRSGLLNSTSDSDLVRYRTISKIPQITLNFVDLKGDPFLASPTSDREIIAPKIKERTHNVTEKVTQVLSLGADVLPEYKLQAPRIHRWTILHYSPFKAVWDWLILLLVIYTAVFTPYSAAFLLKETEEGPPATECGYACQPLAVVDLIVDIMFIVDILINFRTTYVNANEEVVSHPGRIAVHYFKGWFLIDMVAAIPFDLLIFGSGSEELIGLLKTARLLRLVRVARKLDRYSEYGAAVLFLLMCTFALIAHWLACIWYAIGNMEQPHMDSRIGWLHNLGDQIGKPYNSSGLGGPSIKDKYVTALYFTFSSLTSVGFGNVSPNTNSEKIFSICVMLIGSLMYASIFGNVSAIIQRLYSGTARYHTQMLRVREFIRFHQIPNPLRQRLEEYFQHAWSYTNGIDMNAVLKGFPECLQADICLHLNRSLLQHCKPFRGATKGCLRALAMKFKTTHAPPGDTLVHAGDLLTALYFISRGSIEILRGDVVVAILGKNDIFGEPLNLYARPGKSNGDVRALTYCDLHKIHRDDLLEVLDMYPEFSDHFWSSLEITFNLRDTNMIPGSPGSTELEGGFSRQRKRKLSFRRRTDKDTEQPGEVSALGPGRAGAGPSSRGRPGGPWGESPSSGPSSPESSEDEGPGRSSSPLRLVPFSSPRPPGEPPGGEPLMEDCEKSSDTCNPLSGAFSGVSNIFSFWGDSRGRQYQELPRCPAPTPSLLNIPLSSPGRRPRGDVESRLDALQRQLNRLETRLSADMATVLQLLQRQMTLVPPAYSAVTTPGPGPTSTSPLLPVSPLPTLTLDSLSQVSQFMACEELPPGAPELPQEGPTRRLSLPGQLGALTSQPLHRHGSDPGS
- Test name: hERG assay, IonWorks patch clamp electrophysiology
- Format: cell-based
- Test settings: human, pH 7.3; Chinese Hamster Lung cell line stably expressing hERG, IonWorks Quattro, max 11 uM
Endpoint name: IC50

* NC(=O)N1CCC(c2c(-c3ccc(N)nc3)n(-c3ccc(Cl)cc3)c3cnccc23)CC1 | 1 to 10 µM
* Clc1ccc(-n2c(-c3ccncc3)c(C3CCNCC3)c3ccncc32)cc1 | 1 to 10 µM
* NC(=O)N1CCC(c2c(-n3cccn3)n(-c3ccc(Cl)cc3)c3cnccc23)CC1 | 1 to 10 µM

Reference for the values: patent US9580415B2
